B1: MLL5 (parent)
chain: HDDGYMICCDKCSVWQHIDCMGID

Variants of: B1
Experiment: protein stability index of a GFP-peptide fusion (GPS, HEK-293T) (PSI 1-6); higher = more stable;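 note: lentivirally expressed fusions sorted by FACS into six bins by GFP to DsRed ratio, PSI derived from sequencing read proportions per bin multiplied by bin number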
Details: c terminus: a fixed tail appended
Label met when protein stability index is at or above 2; anything below gets not met.

[[record]]
variant_string = "C20L"
assigned_category = "not met"

[[record]]
variant_string = "H17M"
assigned_category = "met"

[[record]]
variant_string = "D24T"
assigned_category = "not met"

[[record]]
variant_string = "D10K"
assigned_category = "met"

[[record]]
variant_string = "K11S"
assigned_category = "met"

[[record]]
variant_string = "D10R"
assigned_category = "met"

[[record]]
variant_string = "D10E"
assigned_category = "met"

[[record]]
variant_string = "H17Y"
assigned_category = "not met"

[[record]]
variant_string = "D19R"
assigned_category = "met"

[[record]]
variant_string = "D19C"
assigned_category = "met"

[[record]]
variant_string = "M6S"
assigned_category = "met"

[[record]]
variant_string = "G22S"
assigned_category = "met"

[[record]]
variant_string = "I7Y"
assigned_category = "met"

[[record]]
variant_string = "Q16T"
assigned_category = "not met"

[[record]]
variant_string = "Y5S"
assigned_category = "met"

[[record]]
variant_string = "S13F"
assigned_category = "not met"

[[record]]
variant_string = "I7Q"
assigned_category = "met"

[[record]]
variant_string = "H1P"
assigned_category = "not met"

[[record]]
variant_string = "W15Y"
assigned_category = "met"

[[record]]
variant_string = "D10N"
assigned_category = "met"

[[record]]
variant_string = "G22P"
assigned_category = "met"

[[record]]
variant_string = "I18C"
assigned_category = "met"

[[record]]
variant_string = "D19S"
assigned_category = "not met"

[[record]]
variant_string = "G22N"
assigned_category = "met"

[[record]]
variant_string = "I23R"
assigned_category = "met"

[[record]]
variant_string = "Y5A"
assigned_category = "met"

[[record]]
variant_string = "W15M"
assigned_category = "met"

[[record]]
variant_string = "V14K"
assigned_category = "met"

[[record]]
variant_string = "D10Y"
assigned_category = "met"

[[record]]
variant_string = "C20I"
assigned_category = "met"

[[record]]
variant_string = "H1K"
assigned_category = "met"

[[record]]
variant_string = "D19H"
assigned_category = "met"

[[record]]
variant_string = "G4C"
assigned_category = "met"

[[record]]
variant_string = "I23C"
assigned_category = "met"

[[record]]
variant_string = "M6F"
assigned_category = "met"

[[record]]
variant_string = "D24E"
assigned_category = "met"

[[record]]
variant_string = "H1Y"
assigned_category = "met"

[[record]]
variant_string = "S13W"
assigned_category = "met"

[[record]]
variant_string = "C8R"
assigned_category = "met"

[[record]]
variant_string = "D24W"
assigned_category = "not met"

[[record]]
variant_string = "D3M"
assigned_category = "not met"

[[record]]
variant_string = "H17V"
assigned_category = "met"

[[record]]
variant_string = "C12Q"
assigned_category = "met"

